target: recombinant human TRKA (G667C) (Homo sapiens, UniProt P04629, G667C); test: In vitro activity test on mutant TRKA (G667C) (HTRF KinEASE TK); conditions: 5.5 μM ATP, 30 min
Sequence (P04629 33-796 G667C): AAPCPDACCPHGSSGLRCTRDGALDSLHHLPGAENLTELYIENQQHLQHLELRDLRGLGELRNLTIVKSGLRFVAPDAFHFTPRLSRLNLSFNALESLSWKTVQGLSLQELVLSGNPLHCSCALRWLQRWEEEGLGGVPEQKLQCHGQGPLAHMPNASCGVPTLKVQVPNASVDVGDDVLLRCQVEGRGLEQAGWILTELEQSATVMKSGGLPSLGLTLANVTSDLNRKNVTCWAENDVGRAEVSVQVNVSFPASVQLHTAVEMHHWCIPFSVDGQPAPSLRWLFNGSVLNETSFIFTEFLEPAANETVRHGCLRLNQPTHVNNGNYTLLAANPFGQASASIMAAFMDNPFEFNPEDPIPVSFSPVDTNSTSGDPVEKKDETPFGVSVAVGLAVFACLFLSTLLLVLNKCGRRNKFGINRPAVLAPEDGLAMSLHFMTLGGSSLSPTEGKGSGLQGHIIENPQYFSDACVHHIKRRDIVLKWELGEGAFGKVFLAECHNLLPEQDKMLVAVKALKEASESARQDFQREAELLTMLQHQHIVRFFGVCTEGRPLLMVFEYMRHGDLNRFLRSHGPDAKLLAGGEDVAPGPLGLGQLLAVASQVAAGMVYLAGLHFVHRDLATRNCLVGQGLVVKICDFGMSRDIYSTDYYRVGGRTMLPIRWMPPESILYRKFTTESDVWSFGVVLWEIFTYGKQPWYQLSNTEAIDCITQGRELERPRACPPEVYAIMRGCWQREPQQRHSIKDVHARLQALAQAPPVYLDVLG
pIC50: −log10 of the molar value.
observation type: pIC50

Some solved cases for reference:
CC(C)N1CCC(n2cc(-c3ccnc4ccc(N5C[C@@H](F)C[C@@H]5c5cc(F)ccc5F)nc34)cn2)CC1: > 7.30
N#Cc1cnc2ccc(N3C[C@@H](F)C[C@@H]3c3cc(F)ccc3F)nc2c1-c1cnn(C2CCNCC2)c1: > 8.00
Fc1ccc(F)c([C@H]2C[C@H](F)CN2c2ccc3ncc(Cl)c(-c4cnn(C5CNC5)c4)c3n2)c1: > 9.00

Ask: GET pIC50 where system = recombinant human TRKA (G667C) (Homo sapiens, UniProt P04629, G667C) and item = CS(=O)(=O)n1cc(-c2c(Cl)cnc3ccc(N4C[C@@H](F)C[C@@H]4c4cc(F)ccc4F)nc23)cn1
Result: > 8.00

Ask: GET pIC50 where system = recombinant human TRKA (G667C) (Homo sapiens, UniProt P04629, G667C) and item = COc1ccc(F)cc1[C@H]1CCCN1c1ccc2ncc(Cl)c(-c3cnn(C4CCNCC4)c3)c2n1
Result: > 8.00
